Test system: Nucleic Acid
Protocol summary: Binding affinity to HIV1 TAR RNA assessed as melting temperature at HIV1 TAR RNA to compound ratio of 1 at pH 6.8 by UV thermal denaturation assay
Type: nucleic-acid assay
Setup conditions: Human immunodeficiency virus 1

| Smiles entry | Tm / °C |
| --- | --- |
| NC[C@@H]1O[C@H](O[C@H]2[C@@H](O)[C@H](O[C@@H]3[C@@H](O)[C@H](N)C[C@H](N)[C@H]3O[C@H]3O[C@H](CN)[C@@H](O)[C@H](O)[C@H]3N)O[C@@H]2Cn2cc(CCCCCCc3cn(C[C@H]4O[C@@H](O[C@@H]5[C@@H](O)[C@H](N)C[C@H](N)[C@H]5O[C@H]5O[C@H](CN)[C@@H](O)[C@H](O)[C@H]5N)[C@H](O)[C@@H]4O[C@H]4O[C@@H](CN)[C@@H](O)[C@H](O)[C@H]4N)nn3)nn2)[C@H](N)[C@@H](O)[C@@H]1O | 74.9 |
| NC[C@@H]1O[C@H](O[C@H]2[C@@H](O)[C@H](O[C@@H]3[C@@H](O)[C@H](N)C[C@H](N)[C@H]3O[C@H]3O[C@H](CN)[C@@H](O)[C@H](O)[C@H]3N)O[C@@H]2Cn2cc(CCCc3cn(C[C@H]4O[C@@H](O[C@@H]5[C@@H](O)[C@H](N)C[C@H](N)[C@H]5O[C@H]5O[C@H](CN)[C@@H](O)[C@H](O)[C@H]5N)[C@H](O)[C@@H]4O[C@H]4O[C@@H](CN)[C@@H](O)[C@H](O)[C@H]4N)nn3)nn2)[C@H](N)[C@@H](O)[C@@H]1O | 78.2 |
